Origin of measurements: a melting point compilation (Tetko et al.; mined from patent text by program, amines drawn as free bases though some values may be those of a salt)

I'd be grateful if you could share measured melting point for these entries.

# Molecule, Endpoint value
rows = [
    ("O=C(O)CS(=O)c1ccc2c(-c3ccccc3F)noc2c1 (configuration not stated)", "165 to 166 °C"),
    ("CCOC(=O)N1C(=S)NC(C)=C(C(=O)OC(C)C)C1c1cccc([N+](=O)[O-])c1 (single isomer, unassigned; (-))", "120 to 122 °C"),
    ("COc1cc(COc2nn(C)cc2C(=O)O)ccc1OCc1nc(-c2ccccc2)oc1C", "169 to 170 °C"),
    ("COc1ccc2cc(NC(=O)OC(C)(C)C)ccc2c1", "124 to 127 °C"),
    ("CCc1cc(-c2nc3ccccc3s2)ccc1N", "118 to 120 °C"),
]

Could you report melting point for every entry in the following list?
1. COC(=O)CSc1cc(=O)n(C)c(=O)n1C
2. CC1(C)CC(=O)c2cc(C#N)c(N3CCCCC3)nc2C1

Resp:
1. 96 to 97.5 °C
2. 99 to 100 °C
